B1: HDV Ribozyme (parent)
chain: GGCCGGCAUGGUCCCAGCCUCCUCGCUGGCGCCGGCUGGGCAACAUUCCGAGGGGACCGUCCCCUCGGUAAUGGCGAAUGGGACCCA

# Variants of: B1
# measurement.notes: self-cleavage, relative activity (ratio to wild type); higher = more cleavage; co-transcriptional
Listed below: self-cleavage values for each entry.

mutation.descriptor	self-cleavage
G38U C63G	0.0978
C75U G81U	0.193
G76U G81A	0.506
G54C G82U	0.448
A42G U69A	0.554
C4G G39C	0.0326
G53U A83U	0.609
C36A G54U	0.229

State its self-cleavage for this variant: C26A G28C
0.0791

State its self-cleavage for this variant: A16C G40C
0.201

State its self-cleavage for this variant: G17C C64G
0.298

State its self-cleavage for this variant: C58G C63U
1.04
